assay_target: T1, human GHRH receptor (human pituitary membrane homogenates) (human), Q02643
T1 chain: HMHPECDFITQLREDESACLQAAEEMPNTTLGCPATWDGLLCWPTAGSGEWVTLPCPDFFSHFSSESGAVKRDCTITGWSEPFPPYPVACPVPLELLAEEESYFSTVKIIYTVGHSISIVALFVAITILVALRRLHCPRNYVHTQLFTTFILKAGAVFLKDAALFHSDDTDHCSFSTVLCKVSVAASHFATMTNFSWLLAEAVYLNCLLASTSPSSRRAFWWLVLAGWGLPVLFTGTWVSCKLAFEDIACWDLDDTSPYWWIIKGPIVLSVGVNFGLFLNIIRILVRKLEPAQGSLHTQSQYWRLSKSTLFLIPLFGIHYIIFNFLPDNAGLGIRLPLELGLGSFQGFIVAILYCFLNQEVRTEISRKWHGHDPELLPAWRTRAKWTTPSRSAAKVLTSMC
assay_text: radioligand competition vs 125I-JV-1-42 (0.2 nM), human pituitary membranes
Non-standard residues stand in square brackets, D forms with d. No end group written: not given here. NMeY = CN[C@@H](Cc1ccc(O)cc1)C(=O)O; Nle = CCCC[C@H](N)C(=O)O; Orn = NCCC[C@H](N)C(=O)O; Abu = CC[C@H](N)C(=O)O; GABA = NCCCC(=O)O
Overview of reported IC50 across a group of binders:
Please give a number only; it is taken to be in nM.

[NMeY]ADAIFTQSYR[Orn]VL[Abu]QLSAR[Orn]LLQDI[Nle]SR-NHMe [P-27405 [N-Me-Tyr^1, Gln^8, Orn^12, Abu^15, Orn^21, Nle^27]hGHRH(1-29)NH-CH3] :: 1.08

Now look at this entry.
State the recorded IC50 for this entry: [NMeY]ADAIFTNSYR[Orn]VL[Abu]QLSAR[Orn]LLQDI[Nle]SR[GABA]-NHMe [P-27415 [N-Me-Tyr^1, Orn^12, Abu^15, Orn^21, Nle^27, Gab^30]hGHRH(1-30)NH-CH3] 3.02
